# TEST_METHOD_NOTES: Biodistribution in male Balb/C mice
# Format: in vivo
# EXPERIMENTAL_PARAMETERS: 60 min post injection, tail vein; mean ± SD, n = 4
PROPERTY_LABEL: Biodistribution: Kidney
Hi, when you answer, please include the unit after the number. Thanks!

# count of solved cases: 3
[
  {
    "COMPOUND": "COC(=O)c1ccc(/C=C/c2ccncc2)cc1 [[^11C]TZ-20-35]",
    "PROPERTY_LABEL": "Biodistribution: Kidney",
    "EXPERIMENTAL_RESULT": "4.23 ± 0.47 % ID/g"
  },
  {
    "COMPOUND": "COc1ccc(NC(=O)c2ccc(/C=C/c3ccncc3)cc2)cc1 [[^11C]TZ-20-83]",
    "PROPERTY_LABEL": "Biodistribution: Kidney",
    "EXPERIMENTAL_RESULT": "5.82 ± 0.47 % ID/g"
  },
  {
    "COMPOUND": "O=C(Nc1ccc(OCCC[18F])cc1)c1ccc(/C=C/c2ccncc2)cc1 [[^18F]TZ-23-92]",
    "PROPERTY_LABEL": "Biodistribution: Kidney",
    "EXPERIMENTAL_RESULT": "3.87 ± 0.36 % ID/g"
  }
]

Now look at this entry.
Record request: Biodistribution: Kidney value, item O=C(Nc1ccc(OCC[18F])cc1)c1ccc(/C=C/c2ccncc2)cc1 [[^18F]TZ-23-88]
5.59 ± 0.29 % ID/g

====

# MEASURED_TARGET: α-synuclein fibrils (Homo sapiens, UniProt P37840)
# Construct: made in house; host or cells: E. coli BL21(DE3)RIL
# TEST_METHOD_NOTES: Thioflavin T competition assay (Example 130, Table 9), α-synuclein fibrils
# Assay type: binding
# EXPERIMENTAL_PARAMETERS: individual determinations; read-out: α-synuclein EC50
# Protocol: Freshly transformed BL21 colonies were inoculated into 2 L baffled flasks containing 250 ml sterilized TB (1.2% bactotryptone, 2.4% yeast extract, 0.4% glycerol, 0.17 M KH2PO4, 0.72 M K2HPO4) with 50 μg/ml ampicillin, and incubated overnight at 37° C. with shaking. Competition assays used a fixed concentration of α-syn, Aβ, or tau fibrils (1 μM), consisting of 3 μM, 50 nM and 4 μM of ThioflavinT respectively. […] Data were analyzed using Graphpad. […]
Could you please report measured EC50 for the items listed next?

# count of solved cases: 2
[
  {
    "RECORD_SMILES": "COc1ccc2nc(C#Cc3ccnc(OC)c3)ccc2c1",
    "PROPERTY_LABEL": "EC50",
    "EXPERIMENTAL_RESULT": "609 nM"
  },
  {
    "RECORD_SMILES": "COCOc1ccc2nc(/C=C/c3ccnc(OC)c3)ccc2c1",
    "PROPERTY_LABEL": "EC50",
    "EXPERIMENTAL_RESULT": "110 nM"
  }
]

Param readout = EC50; param system = α-synuclein fibrils (Homo sapiens, UniProt P37840); param query = COc1cc(/C=C/c2ccc3cc(OC(C)C)ccc3n2)ccn1 ; response: value
128 nM

====

# TEST_METHOD_NOTES: Biodistribution in male Balb/C mice
# Format: in vivo
# EXPERIMENTAL_PARAMETERS: 5 min post injection, tail vein; mean ± SD, n = 4
Could you please report measured Biodistribution: Fat for the items listed next?

# count of solved cases: 3
[
  {
    "MOLECULE": "COC(=O)c1ccc(/C=C/c2ccncc2)cc1 [[^11C]TZ-20-35]",
    "EXPERIMENTAL_RESULT": "0.90 ± 0.42 % ID/g"
  },
  {
    "MOLECULE": "COc1ccc(NC(=O)c2ccc(/C=C/c3ccncc3)cc2)cc1 [[^11C]TZ-20-83]",
    "EXPERIMENTAL_RESULT": "1.94 ± 0.20 % ID/g"
  },
  {
    "MOLECULE": "O=C(Nc1ccc(OCC[18F])cc1)c1ccc(/C=C/c2ccncc2)cc1 [[^18F]TZ-23-88]",
    "EXPERIMENTAL_RESULT": "2.43 ± 0.42 % ID/g"
  }
]

Now look at this entry.
Record request: Biodistribution: Fat value, item O=C(Nc1ccc(OCCC[18F])cc1)c1ccc(/C=C/c2ccncc2)cc1 [[^18F]TZ-23-92]
1.79 ± 0.55 % ID/g

====

Could you please report measured Biodistribution: Lung for the items listed next?
# TEST_METHOD_NOTES: Biodistribution in male Balb/C mice
# Type: in vivo
# EXPERIMENTAL_PARAMETERS: 30 min post injection, tail vein; mean ± SD, n = 4
# Description: For the biodistribution studies, 100˜130 μCi of [^11C] […] All the tissue samples were collected in tared tubes and counted in an automated gamma counter (Beckman Gamma 8000 well counter) with standards, prepared by diluting the injectate. The counted tissues were then weighed, and the % ID/g was calculated (Table 4).
Give bare numbers, in % ID/g.

[
  {
    "COMPOUND": "O=C(Nc1ccc(OCCC[18F])cc1)c1ccc(/C=C/c2ccncc2)cc1 [[^18F]TZ-23-92]",
    "EXPERIMENTAL_RESULT": 2.30
  }
]

I have 3 compounds here; please give me Biodistribution: Lung for each one.
1. O=C(Nc1ccc(OCC[18F])cc1)c1ccc(/C=C/c2ccncc2)cc1 [[^18F]TZ-23-88]
2. COC(=O)c1ccc(/C=C/c2ccncc2)cc1 [[^11C]TZ-20-35]
3. COc1ccc(NC(=O)c2ccc(/C=C/c3ccncc3)cc2)cc1 [[^11C]TZ-20-83]

1. 2.57
2. 2.94
3. 4.10

====

Could you please report measured Biodistribution: Lung for the items listed next?
# TEST_METHOD_NOTES: Biodistribution in male Balb/C mice
# Assay type: in vivo
# EXPERIMENTAL_PARAMETERS: 5 min post injection, tail vein; mean ± SD, n = 4
One number for each entry, in % ID/g.

# count of solved cases: 3
[
  {
    "COMPOUND": "O=C(Nc1ccc(OCCC[18F])cc1)c1ccc(/C=C/c2ccncc2)cc1 [[^18F]TZ-23-92]",
    "PROPERTY_LABEL": "Biodistribution: Lung",
    "RESULT_UNIT": "% ID/g",
    "EXPERIMENTAL_RESULT": 7.70
  },
  {
    "COMPOUND": "COC(=O)c1ccc(/C=C/c2ccncc2)cc1 [[^11C]TZ-20-35]",
    "PROPERTY_LABEL": "Biodistribution: Lung",
    "RESULT_UNIT": "% ID/g",
    "EXPERIMENTAL_RESULT": 4.78
  },
  {
    "COMPOUND": "COc1ccc(NC(=O)c2ccc(/C=C/c3ccncc3)cc2)cc1 [[^11C]TZ-20-83]",
    "PROPERTY_LABEL": "Biodistribution: Lung",
    "RESULT_UNIT": "% ID/g",
    "EXPERIMENTAL_RESULT": 11.22
  }
]

Now look at this entry.
Record request: Biodistribution: Lung value, item O=C(Nc1ccc(OCC[18F])cc1)c1ccc(/C=C/c2ccncc2)cc1 [[^18F]TZ-23-88]
8.50

====

# MEASURED_TARGET: α-synuclein fibrils (Homo sapiens)
# Construct: made in house; host or cells: E. coli BL21(DE3)RIL
# TEST_METHOD_NOTES: ThT competitive assay for α-synuclein fibrils (Table 1)
# Format: binding
# EXPERIMENTAL_PARAMETERS: average; read-out: Ki (nM) α-syn (avg)
# Protocol: Upon binding to amyloid fibrils, a peak at approximately 440 nm becomes dominant with the fluorescent emission maximum shifted to 480 nm. This is accompanied by a strong enhancement of the fluorescence. […] Once the ThT-α-synuclein saturation binding curve and dissociation constant (Kd) were determined the competitive assay for determining the binding affinity of various test compounds was conducted. […] The fluorescent intensity for each cell was measured by the fluorescence reader at λex and λem. […]
Could you please report measured log10 of Ki for the items listed next?
Give log10 of Ki, with Ki taken in nM.

# count of solved cases: 3
[
  {
    "COMPOUND": "OCc1ccc2oc(-c3ccc(-c4ccc(F)nc4)c(C(F)(F)F)c3)nc2c1 [TZ-31-123]",
    "EXPERIMENTAL_RESULT": 4.50
  },
  {
    "COMPOUND": "FC(F)(F)c1ccc(/C=C/c2ccncc2)cc1 [TZ-20-75]",
    "EXPERIMENTAL_RESULT": 1.57
  },
  {
    "COMPOUND": "COc1ccc(/C=C/c2ccsc2)cc1 [TZ-34-28]",
    "EXPERIMENTAL_RESULT": 2.24
  }
]

I have 5 compounds here; please give me log10 of Ki for each one.
1. CN(C)c1ccc(/C=C/c2cnccn2)cc1 [TZ-22-35-1]
2. COCOc1ccc2nc(/C=C/c3ccnc(OC)c3)ccc2c1 [TZ-36-144]
3. O=C(OCCF)c1ccc(/C=C/c2ccncc2)cc1 [TZ-20-63]
4. COc1ccc2nc(/C=C/c3ccccn3)ccc2c1 [TZ-36-34]
5. COc1ccc2c(c1)Oc1cc([N+](=O)[O-])ccc1N2C/C=C/c1ccc(N(C)C)cc1 [TZ-19-140]

1. 2.84
2. 1.62
3. 1.98
4. 2.29
5. 2.67

I have 2 compounds here; please give me log10 of Ki for each one.
1. Fc1ccc(/C=C/c2ccncc2)cc1 [TZ-20-73]
2. COc1cccc2ccc(/C=C/c3ccccc3)nc12 [TZ-19-148]

1: 2.64; 2: 2.79
